Biological target: hGLP-1R (Homo sapiens, UniProt P43220)
Sequence (P43220 24-463): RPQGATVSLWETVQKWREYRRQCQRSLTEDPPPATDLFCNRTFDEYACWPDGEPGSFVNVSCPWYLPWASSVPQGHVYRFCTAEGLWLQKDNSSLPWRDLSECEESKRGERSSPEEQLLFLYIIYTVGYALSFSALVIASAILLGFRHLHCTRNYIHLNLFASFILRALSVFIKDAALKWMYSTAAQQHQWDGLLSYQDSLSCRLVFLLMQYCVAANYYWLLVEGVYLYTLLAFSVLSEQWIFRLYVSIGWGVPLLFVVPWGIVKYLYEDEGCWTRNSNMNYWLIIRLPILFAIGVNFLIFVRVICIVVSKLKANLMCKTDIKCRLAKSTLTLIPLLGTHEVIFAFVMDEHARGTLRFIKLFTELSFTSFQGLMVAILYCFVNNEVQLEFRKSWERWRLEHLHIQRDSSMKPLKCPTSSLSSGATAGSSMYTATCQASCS
Experiment: cell-based or functional assay
Starred links: 1 amine or outer side, 2 acyl side, 3 side chain; linkers in the order of their positions; H or OH if unused. Non-standard residues stand in square brackets, D forms with d. Groups on a side chain read outwards from the residue. No end group written: not given here. *: point of attachment. C20 diacid = O=C(O)CCCCCCCCCCCCCCCCCCC(=O)*; γGlu = O=C(O)[C@H](CCC(=O)[*:2])N[*:1]; αMeL = CC(C)C[C@](C)(N)C(=O)O; AEEA = NCCOCCOCC(=O)O; Aib = CC(C)(N)C(=O)O
measured.attribute: Relative cAMP EC50 (nM)
One number for each entry, in nM.

These solved cases illustrate the format of a correct answer.
binder | Relative cAMP EC50 / nM
YXQGTXTSDXXIXLDXKAQXXFIEXLTEGGPSSGEPPPEGTEE (acylated Lys (γGlu)2-C18 diacid; non-natural residues; C-terminal amide; synthetic construct; SITE 2: note = 2-Aminoisobutyric Acid; SITE 6: note = alpha-methyl-2-fluoro-L-phenylalanine; SITE 10: note = 3-(4-Pyridyl)-L-alanine; SITE 11: note = alpha-methyl-L-serine; SITE 13: note = alpha-methyl-leucine; SITE 16: note = L-ornithine; SITE 17: note = Lysine is chemically mo) [Example 597] | 0.6
Y[Aib]QGTFTSDYSK[αMeL]LDKK([AEEA-γGlu-C20 diacid])AQQAFIEYLIAGGPSSGAPPPSSE-NH2 [Example 322] | 0.394

Query: Which Relative cAMP EC50 reading was recorded for the binder YXQGTFTSDFSQXLDKKAQXAFIEYLLEXGESSGAPPPSGS (synthetic construct; SITE 2: note = 2-Aminoisobutyric Acid; SITE 13: note = alpha-methyl-leucine; SITE 17: note = Lysine is chemically modified through conjugation of the epsilon-amino group of the Lysine side chain with (2-[2-(2-Amino-ethoxy)-ethoxy]-acetyl)2-(gamma-Glu)-CO-(CH2 )16-CO2H; SITE 20:) [Example 787] ?
Response: 2.55
